assay: Calibration of free NIR probe/sensor by bilirubin titration (cuvette fluorometry, fit with equation 1); format: binding; settings: effect of fluorophore (cysteine) position; responder probe labeled with 700DX-maleimide
endpoint.name: Kd (nM)
One number for each entry, in nM.

Reported Kd for 27C-C2XH11-700DXM: rIFABP mutein MGI-KR14-14R 18L 27C 38V 60R 73F 106L 115R 117D 131D-C2XH11 labeled with LICOR 700DX-maleimide (protein, C2XH11 tag; LICOR 700DX-maleimide label; mutated bf sensitive probe, rIFABP mutein MGI-KR14-14R 18L 27C 38V 60R 73F 106L 115R 117D 131D-C2XH11 labeled with LICOR 700DX-maleimide) MGIAFDGTWRVDRNENRERFLERMGINVVCRRLGAHDNLRVTITQEGNRFTVRESSNFRNIDRVFELGVDFAYSLFDGTELTGTWTMEGNRLVGRFRRVDNGRELIAVLEISGNELIRTDTYEGVEARRIFRRDRGAASHHHHHHSHRATPNTSPHHHHHHH was 30
